IC50 listing for selected compounds.
biological target: MAPKAPK2 Recombinant Human Protein (Homo sapiens, UniProt P49137); construct: purchased ThermoFisher pv3317; experiment: MK2 kinase assay (Z'-LYTE kinase assay kit); conditions: inhibition of MK2 biochemical activity; 90 min incubation at room temperature
Sequence (P49137 whole entry): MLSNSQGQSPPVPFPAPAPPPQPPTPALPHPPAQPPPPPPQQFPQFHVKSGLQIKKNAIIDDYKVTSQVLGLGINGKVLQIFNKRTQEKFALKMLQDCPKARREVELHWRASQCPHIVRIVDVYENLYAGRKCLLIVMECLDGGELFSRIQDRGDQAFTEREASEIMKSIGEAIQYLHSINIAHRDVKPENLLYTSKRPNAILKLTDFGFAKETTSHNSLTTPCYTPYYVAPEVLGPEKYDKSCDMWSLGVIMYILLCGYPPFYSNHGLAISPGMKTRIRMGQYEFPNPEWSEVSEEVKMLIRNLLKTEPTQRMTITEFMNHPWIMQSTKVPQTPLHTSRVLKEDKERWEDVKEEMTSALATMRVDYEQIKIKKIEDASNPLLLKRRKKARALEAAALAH

// known answers, use as guide
Record request: IC50 value, item `CN1CC(N2C(=O)CN(c3ccc4c(c3)Cn3cc(-c5ccc(C#N)cc5)cc3-c3nccn3-4)C2=O)C1` < 50 nM

What do you get for `CN(C)C[C@@H]1[C@@H]2CN(c3ccc4c(c3)Cn3cc(-c5ccc(C#N)cc5)cc3-c3nccn3-4)C(=O)[C@H]12` ? 50 to 100 nM

Now for a further compound.
# query: IC50 of entry `CN(C)[C@@H]1CC[C@@H](NC(=O)c2ccc3c(c2)Cn2cc(-c4ccc(C#N)cc4)cc2-c2nccn2-3)C1` 300 to 400 nM
